The reader will find reported protein stability index values listed item by item below.
Assay: protein stability index of a GFP-peptide fusion (GPS, HEK-293T) (PSI 1-6); higher = more stable;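 also: 24-mer peptide tiles fused after GFP, lentivirally expressed, FACS-sorted into six equal bins by GFP/DsRed ratio, decoded by Illumina sequencing, PSI is the read-weighted mean bin number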
Settings: treatment: DMSO; c terminus: a fixed tail appended
quantity measured: protein stability index

VSRMRTQRAFSIQTPEQYYFCYKA [PTPN9]	2.56
ALGILIFEMLSGFPPFFDDNPFGI [PRKX]	3.11
CHRHYHSMEVFTHYDLLNLNGTKV [LOXL2]	2.21
TETDSLVSAQRERPRRRDGPEHAT [DVL3]	5.24
WIEQLNECKQLSESQVKSLCEKAK [PPP2CA]	3.85
AKAQVRKAVQYEEKNPCRTLCCFC [STX11]	2.97
AKQKLDFFIRTSDSFDKFDFCEPS [PCMTD2]	2.87
